Test system: HOP-18
Experiment: NCI tumour cell line growth inhibition, 48 h
Calls of active or inactive are those of the source. Cut-off read from the data, not from the text of the source: active = GI50 up to about 1.1 µM and inactive = higher.
Returns: one label drawn from active, inactive

Query :: Hey, what did the test say about Cc1ccc2oc(=O)c3c(O)c4cccc(OC5OC(C)C6O[C@@H](c7ccccc7)OC6C5OC5OC(C)C(O)C(O)C5O)c4c4oc(=O)c1c2c34 (some centres undefined) ?
Result :: active

Query :: Hey, what did the test say about `COc1cccc(N2C(=O)c3c(c4[nH]c5ccccc5c4c4ccc(C(C)(C)C)cc34)C2=O)c1` ?
Result :: inactive

Query :: Hey, what did the test say about `CCCCCCCCCCCCCP(=O)(O)O` ?
Result :: inactive

Query :: Hey, what did the test say about `O=C(Oc1ccc(Cl)cc1[N+](=O)[O-])c1ccccc1` ?
Result :: inactive

Query :: Hey, what did the test say about `COc1ccc(/C(=C\c2cc(OC)c(OC)c(OC)c2)C(=O)O)cc1` ?
Result :: inactive

Query :: Hey, what did the test say about `O=C(CCc1cc(-c2ccc(F)cc2)n[nH]1)N(Cc1ccccc1)Cc1ccccc1` ?
Result :: inactive

Query :: Hey, what did the test say about O=C(CC1(O)C(=O)Nc2c(Cl)cc(Cl)cc21)c1ccc2ccccc2c1 (centres undefined) ?
Result :: inactive

Query :: Hey, what did the test say about `Cc1ccc(C)c(NC(=O)CCc2n[nH]c(=S)o2)c1` ?
Result :: inactive

Query :: Hey, what did the test say about `N#Cc1c2nc3ccccc3nc2n2ccc3ccccc3c12` ?
Result :: inactive

====

Please go through the items and note down their GI50.
System: NCI-H522
Assay: NCI tumour cell line growth inhibition, 48 h
The source made the active and inactive calls. Cut-off read from the data, not from the text of the source: active = GI50 up to about 1.1 µM and inactive = higher.

Query :: Send back NCI-H522 GI50 of C[C@@H](CC(=O)O)OC1OC(COC(=O)C(C)(C)C)C(OC(=O)C(C)(C)C)C(OC(=O)C(C)(C)C)C1OC(=O)C(C)(C)C (stereo not given in full) only.
Result :: 57 µM (inactive)

Query :: Send back NCI-H522 GI50 of `CCCCCc1cc2c(cc1O)CC[C@@H]1[C@@H]2CC[C@]2(C)[C@@H](O)CC[C@@H]12` only.
Result :: 18.8 µM (inactive)

Query :: Send back NCI-H522 GI50 of COc1ccc(C(C#N)NC23CC4CC(CC(C4)C2)C3)cc1OC (stereo not given) only.
Result :: > 100 µM (inactive)

Query :: Send back NCI-H522 GI50 of Cc1ccc(-c2cc(-c3ccccc3)c(C#N)c(=O)n2C2OC(CO)C(O)C(O)C2O)cc1 (stereo not given) only.
Result :: > 100 µM (inactive)

Query :: Send back NCI-H522 GI50 of `O=C1C(c2c(O)[nH]c3ccc(I)cc23)=Nc2ccccc21` only.
Result :: 4.2 µM (inactive)

====

System: SF-295
Experiment: NCI tumour cell line growth inhibition, 48 h
Active and inactive are the calls of the source. Rule as the data show it: active = GI50 up to about 1.1 µM and inactive = higher.
Please go through the items and note down their GI50.

Query :: Send back SF-295 GI50 of CO/N=C1\CC(NC(=O)C(F)(F)F)c2ccsc21 (stereo not drawn) only.
Result :: > 100 µM (inactive)

Query :: Send back SF-295 GI50 of NCCCCNCCCNC(=O)CNC(=O)CC(O)C(N)CCCC(NC(=O)C(CN)NC(=O)C(O)CNC(=O)CC(N)c1ccc(O)cc1)C(=O)O (stereo not drawn) only.
Result :: > 10 µM (inactive)

Query :: Send back SF-295 GI50 of `CCC1=NC(N/N=C/c2ccccc2O)=N/C1=C\c1ccccc1O` only.
Result :: 7.69 µM (inactive)
